# System: sulfotransferases (SULTs) in human intestinal S9
# method notes: Inhibition of hydroxycinnamic acid sulfation by flavonoids in human intestinal S9
# Assay type: biochemical
# details: human intestinal S9 0.4 mg/mL; 10 μM caffeic acid; 30 min, 37° C.; read-out: IC50 for the inhibition of sulfation of Caffeic acid
pIC50: −log10 of the molar value.

# molecule, pIC50
measured = [
    ("O=c1cc(-c2ccc(O)c(O)c2)oc2cc(O)cc(O)c12", 5.89),
    ("Oc1cc(O)c2c(c1)O[C@H](c1ccc(O)c(O)c1)[C@H](O)C2 [(−)-Epicatechin]", 5.12),
    ("O=c1c(O)c(-c2ccc(O)cc2)oc2cc(O)cc(O)c12", 5.60),
    ("COc1ccc([C@@H]2CC(=O)c3c(O)cc(O)cc3O2)cc1O", 5.46),
    ("O=c1c(O)c(-c2ccc(O)c(O)c2)oc2cc(O)cc(O)c12", 5.38),
    ("O=c1c(-c2ccc(O)cc2)coc2cc(O)cc(O)c12", 6.11),
    ("O=c1cc(-c2ccc(O)cc2)oc2cc(O)cc(O)c12", 6.02),
    ("Oc1cc(O)c2c(c1)O[C@H](c1ccc(O)c(O)c1)[C@@H](O)C2 [(+)-Catechin]", 5.24),
    ("O=C(CCc1ccc(O)cc1)c1c(O)cc(O)cc1O", 6.08),
    ("COc1cc(-c2oc3cc(O)cc(O)c3c(=O)c2O)ccc1O", 5.36),
    ("O=c1c(-c2ccc(O)cc2)coc2cc(O)ccc12", 6.14),
]
